# System: anti-CD28 scFv
# ASSAY REMARKS: Panning ELISA of clonal phage, anti-CD28 scFv, with or without CD28 soluble protein (Peptide-9 library)
# Format: binding
# SETTINGS: Peptide-9 library, background (no anti-CD28 scFv)
Where no end group is shown, it is not given here.
RESULT TYPE: Background signal

Could you tell me which Background signal is on file for Phage-445 (MDWCPRARWHDCFF) ?
0.097

Please look up its Background signal: Phage-61 (MVSCPTTMWNRCFN; left off: large carriers)
0.079

Could you share which Background signal value was measured for Phage-118 (MDWCPRHLWDECFF) ?
0.074

Please look up its Background signal: Phage-120 (MDWCPRDLWHACFS)
0.074

Item under review: Phage-438 (MDWCPMSRWAFCFD) . Reported Background signal?
0.071

Entry under review: Phage-39 (MDWCPMHLWHQCFN; not fully specified; cysteine pairing not given here) . Reported Background signal?
0.073

---

# System: anti-CD28 scFv (SEQ ID NO: 9)
# ASSAY REMARKS: Kinetic binding of anti-CD28 scFv to peptides, bio-layer interferometry (Octet RED96)
# SETTINGS: Table 36; anti-CD28 scFv titrated 100-12.5 nM, 200 nM peptide loaded
# Procedure: Briefly, streptavidin biosensors were loaded with biotinylated peptides and baselined in buffer. […] After a short association period, sensors were transferred into buffer and the dissociation of bound anti-CD28 scFv was measured. The timing and steps of the experiment are shown in the accompanying table. Association and dissociation signals were recorded in real time and analyzed using a 1:1 binding model within the instrument software. […]
Decision: kon compared against 50000 M⁻¹ s⁻¹; not below it gives y, below it gives n.

Is kon for MDWCPRSLWHECFA [Peptide-47] at or above 50000 M⁻¹ s⁻¹?
n

Could you tell me if the measured kon of MDWCPRYLWHVCFA [Peptide-48] reaches 50000 M⁻¹ s⁻¹ or more?
y

Reported kon at or above 50000 M⁻¹ s⁻¹? MDWCPIYLWSECFN [Peptide-33]
n

Hi, just wondering whether MDWCPRFMWDECFN [Peptide-45] shows kon of 50000 M⁻¹ s⁻¹ or higher.
n

Test whether the sequence MDWCPRDMWDECFA [Peptide-42] records kon of 50000 M⁻¹ s⁻¹ or higher.
n

Form field: kon at least 50000 M⁻¹ s⁻¹? Entry: MDWCPRDLWDLCFA [Peptide-37]
n

Kindly determine if kon recorded for MDWCPIHLWHVCFN [Peptide-32] is above or exactly 50000 M⁻¹ s⁻¹.
y

Item MDWCPRDLWVHCFA [Peptide-41] with kon of 50000 M⁻¹ s⁻¹ or above?
n

Please tell me: is the sequence MDWCPLHMWHECFS [Peptide-35] at or over 50000 M⁻¹ s⁻¹ in terms of kon?
n

Given MNWCPKDIWYLCFN [Peptide-34] , state whether its kon is at least 50000 M⁻¹ s⁻¹.
y

# check: kon of MHWCPVDLWYLCYN [Peptide-49] is greater than or equal to 50000 M⁻¹ s⁻¹
y

Please indicate if the recorded kon for MDWCPRDMWSECFA [Peptide-43] meets or exceeds 50000 M⁻¹ s⁻¹.
n

Record MDWCPLYLWNECFN [Peptide-36] ; criterion: kon no lower than 50000 M⁻¹ s⁻¹. Met?
n

---

# MEASURED ON: anti-CD28 scFv harbored in Ab-15 binding to the CD28 antigen
# ASSAY REMARKS: Inhibition of Ab-15 binding to CD28 by peptides, competition ELISA
# SETTINGS: Table 20; fixed Ab-15 pre-incubated with 0-100 μM titrated peptide, CD28 antigen coated plates
RESULT TYPE: IC50 (µM)
All answers are understood in µM, so give the number only.

Entry under review: ADWCPRERWVDCFF [Peptide-19] . Reported IC50?
4.42

Consider the sequence CFYAEYYDQVYSFC [Peptide-18] and give its measured IC50.
3.25

---

# Test system: anti-CD28 scFv
# ASSAY REMARKS: Panning ELISA of clonal phage, anti-CD28 scFv, with or without CD28 soluble protein (Peptide-9 library)
# Format: binding
# SETTINGS: background (no anti-CD28 scFv)
Where no end group is shown, it is not given here.
Background signal of 0.08 or higher: MET. Under 0.08: NOT MET.

Item Phage-328 (MDWCPRALWDHCFN) with Background signal of 0.08 or above?
MET

Please indicate if the recorded Background signal for Phage-364 (MDWCPRSLWAQCFY) meets or exceeds 0.08.
NOT MET

Is reported Background signal greater than or equal to 0.08 here: Phage-304 (MDWCPKFLWDECFA)
MET

Please check the record Phage-272 (MVWCMSVGWAVCLN; cysteine pairing not given here; also: large carriers left off) and state if its Background signal is at or above 0.08.
MET

Is Background signal at least 0.08? Consider Phage-363 (MNWCPMHLWAECFN)
MET

Could you tell me if the measured Background signal of Phage-345 (MDFCPRFLWHECFN) reaches 0.08 or more?
NOT MET

Determine whether this substance has Background signal no lower than 0.08: Phage-316 (MDWCPRSLWNYCFA)
NOT MET

Threshold query (Background signal >= 0.08) on Phage-320 (MDWCPTYLWNECFN)
MET

Please tell me: is the substance Phage-310 (MDWCPRDLWDECFN) at or over 0.08 in terms of Background signal?
NOT MET

hey, is Background signal for this one >= 0.08? Phage-288 (MDWCPIALWDFCFA)
NOT MET

Could you verify whether the entry Phage-315 (MDWCPTYLWHVCFS) shows Background signal of no less than 0.08?
MET

Check the entry Phage-319 (MSWCPRDLWHLCFF) : does Background signal equal or exceed 0.08?
NOT MET

Is reported Background signal greater than or equal to 0.08 here: Phage-329 (MDWCPRALWNVCFA)
NOT MET

Could you verify whether the entry Phage-371 (MAWCPRYLWAECFF) shows Background signal of no less than 0.08?
MET

API: above_or_equal(metric=Background signal, cutoff=0.08) for item Phage-340 (MSWCPIDLWSECFA)
NOT MET

Evaluate Phage-370 (MTWCPAYLWHECFN) : Background signal at minimum 0.08?
MET

Dear colleague, could you confirm whether Phage-271 (MDWCPTSFWNRCFH; not fully specified; cysteine pairing not given here; also: large carriers left off) has Background signal at or above 0.08?
MET

Entry Phage-376 (MDWCPRHLWTYCFH) : is its Background signal no less than 0.08?
MET

Textbook exercise: given the entry Phage-349 (LDWCPRHLWALCFN) , state whether its Background signal is greater than or equal to 0.08.
NOT MET

State whether the measured Background signal reaches 0.08, counting equality as reaching it, for Phage-350 (MDWCPWFLWNECFN)
MET

Does Background signal meet or surpass 0.08 for Phage-343 (MDWCPRDLWTQCFF) ?
NOT MET

Can Phage-294 (MDWCPRSLWDYCFA) be said to have Background signal at or above 0.08?
MET

Does the reported Background signal for Phage-270 (MDWCPRDFWAFCFF; cysteine pairing not given here; also: large carriers left off) fall at or above the 0.08 mark?
MET

I'd appreciate it if you could say whether Phage-332 (IDWCPRALWDACLA) has Background signal at least equal to 0.08.
MET

Could you verify whether the entry Phage-348 (MAWCPWYLWDECFN) shows Background signal of no less than 0.08?
MET

// inclusive: Background signal at least 0.08? input: Phage-317 (MDWCPRHLWHECFT)
MET

Exam item: decide whether the reported Background signal for Phage-366 (MHWCPLYLWDECFY) is at least 0.08.
MET

Is reported Background signal greater than or equal to 0.08 here: Phage-303 (MDWCPRYLWTECFS)
NOT MET

Could you tell me if the measured Background signal of Phage-353 (IDWCPLHLWHECYH) reaches 0.08 or more?
NOT MET

Textbook exercise: given the entry Phage-322 (MDWCPRHLWIECFN) , state whether its Background signal is greater than or equal to 0.08.
MET

Check this substance for Background signal at or above 0.08: Phage-342 (MDWCPRNLWHECFA)
NOT MET

Textbook exercise: given the entry Phage-330 (MDWCPRFLWDVCFN) , state whether its Background signal is greater than or equal to 0.08.
MET

---

# MEASURED ON: Ab-15 (anti-CD28 scFv of SEQ ID NO: 9)
# ASSAY REMARKS: Ab-15 (anti-CD28 scFv) binding to peptides, ELISA
# Parameters: species or system human
# SETTINGS: Table 20; Ab-15 binding to plate-captured biotinylated peptide or CD28-biotin
RESULT TYPE: pEC50
Convention used: pEC50 is expressed as -log10 of the molar concentration.

I have this sequence here, CFYAEYYDQVYSFC [Peptide-18] , and I need its recorded pEC50.
7.49

Need pEC50 of ADWCPRERWVDCFF [Peptide-19] , thanks.
7.49
